// provenance: patent US20220162261A1

# assayed target: T1, human α4β7 integrin on cells (human, UniProt P13612 34-1032; P26010 20-798)
# T1 construct: whole, on cells; also called α4β7 cell (Hu); RPMI8866 cells
# run description: RPMI8866 cell adhesion to MAdCAM-1
Bridge positions count the residues as written; N and C are the ends. Square brackets hold non-standard residues; d marks the D form. Ends that are not written are not given here. * marks the point of attachment. Phe(4-tBu) = CC(C)(C)c1ccc(C[C@H](N)C(=O)O)cc1; NMeR = CN[C@@H](CCCNC(=N)N)C(=O)O; Myristoyl = CCCCCCCCCCCCCC(=O)*; β3hE = N[C@@H](CCC(=O)O)CC(=O)O; DIG = diglycolic acid (linker); Pen = CC(C)(S)[C@H](N)C(=O)O; βAla = NCCC(=O)O
recorded endpoint: IC50

binder: XRSDTLXWE (Ac Pen N-Me-R S D T L Pen W b-H-E OH; disulfide Pen-Pen) [SEQ ID NO: 146]
IC50: > 50 nM
--
binder: Ac-[Pen][NMeR]SDTL[Pen]WE[dK](Ac) (disulfide 1-7) [SEQ ID NO: 65]
IC50: > 10000 nM
--
binder: Ac-[Pen][NMeR]SDTL[Pen]YE[dK]-NH2 (disulfide 1-7; not fully specified (residue 10); printed as (Ac Pen N-Me-R S D T L Pen Y E k NH2)2 DIG, disulfide Pen-Pen; also: dimer, two subunits joined by DIG linker) [SEQ ID NO: 22]
IC50: ≤ 10 nM
--
binder: [βAla][Pen][NMeR]SDTL[Pen]WE-NH2 (disulfide 2-8; not fully specified (N-terminus); printed as DIG (NH2 Beta-Ala Pen N-Me-R S D T L Pen W E NH2)2, disulfide Pen-Pen; also: homodimer: two subunits linked by DIG via N-terminal Beta-Ala amine, linker printed at the N-terminus) [SEQ ID NO: 54]
IC50: > 25 nM
--
binder: Ac-[Pen][NMeR]SDTL[Pen]WPK(DIG)-NH2 (disulfide 1-7; also: homodimer (…)2 DIG: the two subunits are joined through the K10 NZ by the DIG linker) [SEQ ID NO: 95]
IC50: > 100 nM
--
binder: Ac-[Pen][NMeR]SDTL[Pen][Phe(4-tBu)][β3hE][dK](Myristoyl) (disulfide 1-7) [SEQ ID NO: 175]
IC50: > 500 nM

Now consider a different binder.
Ask | Item under review: Ac-[dK]C[NMeR]SDTLCW[dK]-NH2 (disulfide 2-8 (inferred); not fully specified; printed as DIG (Ac k C N-Me-R S D T L C W k NH2)2 DIG, DIG printed at both ends) [SEQ ID NO: 5] . Reported IC50?
Reply | > 50 nM
